Cited source: PubChem BioAssay AID1963427

# Tested on: 317291-083-R-J1-PDC complex spheroid growth
# Assay Text: Anticancer human tumor 317291-083-R-J1-PDC patient-derived soft tissue sarcoma cell line growth inhibition [Asc]
# Assay Conditions: curve of first compound; second compound 0.00316 µM
Outcome Measure: pIC50
Answers are plain numbers, as −log10 of the molar value.

Consider the molecule shown here: CCN1CCN(Cc2ccc(Nc3ncc(F)c(-c4cc(F)c5nc(C)n(C(C)C)c5c4)n3)nc2)CC1 + CNC(C)C(=O)NC1CN(S(=O)(=O)c2cccc(S(=O)(=O)N3CCC4CCC(C(=O)NC(c5ccccc5)c5ccccc5)N4C(=O)C(NC(=O)C(C)NC)C3)c2)CCC2CCC(C(=O)NC(c3ccccc3)c3ccccc3)N2C1=O What is its recorded pIC50?
6.46

Consider the molecule shown here: Cc1nc(N2CCC3(CC2)COC(C)C3N)c(CO)nc1Sc1ccnc(N)c1Cl (stereo not given) + CNC(C)C(=O)NC1CN(S(=O)(=O)c2cccc(S(=O)(=O)N3CCC4CCC(C(=O)NC(c5ccccc5)c5ccccc5)N4C(=O)C(NC(=O)C(C)NC)C3)c2)CCC2CCC(C(=O)NC(c3ccccc3)c3ccccc3)N2C1=O What is its recorded pIC50?
5.66

Further cases:
Consider the molecule shown here: C=C(F)C(=O)N1CCN(c2nc(OCC3CCCN3C)nc3c2CCN(c2cccc4cccc(Cl)c24)C3)CC1CC#N (stereo not given) + CNC(C)C(=O)NC1CN(S(=O)(=O)c2cccc(S(=O)(=O)N3CCC4CCC(C(=O)NC(c5ccccc5)c5ccccc5)N4C(=O)C(NC(=O)C(C)NC)C3)c2)CCC2CCC(C(=O)NC(c3ccccc3)c3ccccc3)N2C1=O What is its recorded pIC50?
6.02

----------
# Tested on: 317291-083-R-J1-PDC complex spheroid growth
# Assay Text: Anticancer human tumor 317291-083-R-J1-PDC cell line growth inhibition [Asc];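 further: compound exposure lasted seven days after spheroids formed for three days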
# Assay Conditions: curve of first compound; second compound 0.316 µM
# Text: Multicellular complex tumor spheroid response to apoptosis pathway targeting inhibitors Alrizomadlin, Pelcitoclax, and Dasminapant in combination with a variety of drugs and investigational agents in selected tumor cell lines […] Compounds. […] If the clinical Cmax for an agent had not been determined, the highest concentration tested was 10 microM. […]
Outcome Measure: IC50 (µM)
Answers are plain numbers, in µM.

Record excerpt, results attached:
Consider the compound shown here: O=C(c1cc(Cc2n[nH]c(=O)c3ccccc23)ccc1F)N1CCN(C(=O)C2CC2)CC1 + CNC(C)C(=O)NC1CN(S(=O)(=O)c2cccc(S(=O)(=O)N3CCC4CCC(C(=O)NC(c5ccccc5)c5ccccc5)N4C(=O)C(NC(=O)C(C)NC)C3)c2)CCC2CCC(C(=O)NC(c3ccccc3)c3ccccc3)N2C1=O What is its recorded IC50?
0.0316

Consider the compound shown here: O=C(c1cc(Cc2n[nH]c(=O)c3ccccc23)ccc1F)N1CCN(C(=O)C2CC2)CC1 + Cc1c(S(C)(=O)=O)c(-c2cc(F)cc(N3CCN(c4ccc(NS(=O)(=O)c5ccc(NC(CCN6CCC(C(=O)OCCCP(=O)(O)O)CC6)CSc6ccccc6)c(S(=O)(=O)C(F)(F)F)c5)cc4)CC3)c2)c(-c2ccc(Cl)cc2)n1C(C)C What is its recorded IC50?
5.21

Consider the compound shown here: Cn1ncnc1[C@H]1c2n[nH]c(=O)c3cc(F)cc(c23)N[C@@H]1c1ccc(F)cc1 + Cc1c(S(C)(=O)=O)c(-c2cc(F)cc(N3CCN(c4ccc(NS(=O)(=O)c5ccc(NC(CCN6CCC(C(=O)OCCCP(=O)(O)O)CC6)CSc6ccccc6)c(S(=O)(=O)C(F)(F)F)c5)cc4)CC3)c2)c(-c2ccc(Cl)cc2)n1C(C)C What is its recorded IC50?
0.081

Consider the compound shown here: O=C(c1ccc(F)c(F)c1Nc1ccc(I)cc1F)N1CC(O)([C@@H]2CCCCN2)C1 + CNC(C)C(=O)NC1CN(S(=O)(=O)c2cccc(S(=O)(=O)N3CCC4CCC(C(=O)NC(c5ccccc5)c5ccccc5)N4C(=O)C(NC(=O)C(C)NC)C3)c2)CCC2CCC(C(=O)NC(c3ccccc3)c3ccccc3)N2C1=O What is its recorded IC50?
0.0781

Consider the compound shown here: NC(=O)C(=Cn1cnc(-c2cc(C(F)(F)F)cc(C(F)(F)F)c2)n1)c1cncnc1 + CNC(C)C(=O)NC1CN(S(=O)(=O)c2cccc(S(=O)(=O)N3CCC4CCC(C(=O)NC(c5ccccc5)c5ccccc5)N4C(=O)C(NC(=O)C(C)NC)C3)c2)CCC2CCC(C(=O)NC(c3ccccc3)c3ccccc3)N2C1=O What is its recorded IC50?
0.0124

Proceeding to the next compound to report its IC50.
Consider the compound shown here: O=C(c1ccc(F)c(F)c1Nc1ccc(I)cc1F)N1CC(O)([C@@H]2CCCCN2)C1 + Cc1c(S(C)(=O)=O)c(-c2cc(F)cc(N3CCN(c4ccc(NS(=O)(=O)c5ccc(NC(CCN6CCC(C(=O)OCCCP(=O)(O)O)CC6)CSc6ccccc6)c(S(=O)(=O)C(F)(F)F)c5)cc4)CC3)c2)c(-c2ccc(Cl)cc2)n1C(C)C What is its recorded IC50?
0.291
